- Tested on: primary rat mixed cortical cells
- test_method_notes: In vitro myelination assay (MBP positive myelin strands, fold myelin pixels above background)
- Type: cell-based
- test_settings: Rattus norvegicus, 1.0 μM compound, relative to baseline of no added compound; read-out: Fold myelin pixels above background
fold induction at 1 µM reference

{"compound": "Cc1c(Nc2ncn(-c3cc(F)cc(F)c3)n2)cc(N2CCN(C3COC3)CC2)cc1OC(C)C", "assay_value": "10 to 100"}
{"compound": "Cc1cc(Nc2ncn(-c3cc(F)cc(F)c3)n2)cc(N2CC(N3CC4CCC(C3)O4)C2)c1", "assay_value": "1 to 10"}
{"compound": "CC(=O)N1CCC(Nc2cc(C)cc(Nc3ncn(-c4ccccc4)n3)c2)CC1", "assay_value": "100 to 1000"}
{"compound": "Cc1cc(NCCC2CCCO2)cc(Nc2ncn(-c3cc(F)cc(F)c3)n2)c1 (centres unmarked)", "assay_value": "100 to 1000"}

Query block: # query: fold induction at 1 µM of entry Cc1cc(Nc2ncn(-c3cc(F)cc(F)c3)n2)cc(N2CCN(C3CC3)CC2)c1
Result block: 10 to 100

Query block: Proceed to Cc1cc(Nc2ncn(-c3cccc(C(F)F)c3)n2)nc(N2CC(N3CCOCC3)C2)c1
Result block: ≤ 1

Query block: Proceed to Cc1cc(Nc2ncn(-c3ccccc3)n2)cc(Nc2nccs2)c1
Result block: 10 to 100

Query block: Proceed to COCC1CCN(c2cc(C)cc(Nc3ncn(-c4ccccc4)n3)c2)CC1
Result block: 100 to 1000

Query block: Proceed to FC(F)(F)c1cc(Nc2ncn(-c3cnccn3)n2)nc(N2CCN(C3COC3)CC2)c1
Result block: 1 to 10

###

fold induction at 10 µM reference
- Test system: primary rat mixed cortical cells
- test_method_notes: In vitro myelination assay (MBP positive myelin strands, fold myelin pixels above background)
- Type: cell-based
- test_settings: Rattus norvegicus, 10.0 μM compound, relative to baseline of no added compound; read-out: Fold myelin pixels above background, 10.0 μM

Some compounds with recorded fold induction at 10 µM:
{"compound": "Cc1cc(Nc2ncn(-c3cc(F)cc(F)c3)n2)cc(N2CC3(COC3)C2)c1 [Compound 171]", "fold induction at 10 µM": "100 to 1000"}
{"compound": "CN1CCN(c2cc(Nc3ncn(-c4ccccc4)n3)cc(Cl)n2)CC1 [Compound 367]", "fold induction at 10 µM": "100 to 1000"}
{"compound": "CN1CCN(c2cc(Nc3ncn(-c4cccc(F)c4)n3)cc(C(F)(F)F)c2)CC1 [Compound 257]", "fold induction at 10 µM": "≤ 1"}
{"compound": "Cc1cc(Nc2ncn(-c3cc(F)cc(F)c3)n2)cc(C2CCCN(C)C2)c1 (centres unmarked) [Compound 328]", "fold induction at 10 µM": "100 to 1000"}
{"compound": "Cc1cc(Nc2ncn(-c3ccccc3)n2)cc(N2CCN3CCC[C@@H]3C2)c1 [Compound 157]", "fold induction at 10 µM": "1000 to 10000"}

Query block: # query: fold induction at 10 µM of entry Cc1cc(Nc2ncn(-c3cc(F)cc(F)c3)n2)cc(C2CCN(C3COC3)CC2)c1 [Compound 221]
Result block: 100 to 1000

Query block: Proceed to Fc1cc(F)cc(-n2cnc(Nc3cc(Br)cc(N4CCOCC4)c3)n2)c1 [Compound 346]
Result block: 1000 to 10000

Query block: Proceed to Cc1cc(Nc2ncn(-c3ccc(F)c(F)c3)n2)cc(N2CCN(C)CC2)c1 [Compound 317]
Result block: 10 to 100
